Molecular target: Tyrosine-protein kinase Mer (Homo sapiens) (UniProt Q12866)
Conditions: at 10 µM
Recorded metric: inhibition (%)

Recorded results for 5 compounds are shown here.
c1cnn2ncc(-c3ccnc(Nc4ccc5c(c4)OCCO5)n3)c2c1 = -3
CC(=O)NCc1cccc(C#Cc2cncnc2Nc2ccc(OCc3cccc(F)c3)c(Cl)c2)c1 = -7
Fc1ccc(-c2ncn(C3CCNCC3)c2-c2ccnc(Oc3ccc(Oc4ccccc4)cc3)n2)cc1 = 0
Nc1nc(-c2ccc(F)cc2)c(-c2ccc3ncccc3n2)s1 = -2
COc1cc(/C=N/Nc2ncnc3c2cnn3C(C)C)ccc1O = 2

I = Fc1ccc(-c2ncn(C3CCNCC3)c2-c2ccnc(Oc3ccccc3)n2)cc1
II = Nc1ncnc2occ(-c3ccc(NC(=O)Nc4cc(C(F)(F)F)cc(C(F)(F)F)c4)cc3)c12
## Input Quick one: lower inhibition, I or II ? API: response body contains the label of the selected item.
## Output II
(II: 2%, I: 31%)

###

Molecular target: Tyrosine-protein kinase Mer (Homo sapiens) (UniProt Q12866)
Details: at 10 µM
Recorded metric: inhibition (%)

CCn1c(-c2nonc2N)nc2c(C#CC(C)(C)O)nc(OCCNC)cc21 = -6

P = COc1cccc(-n2ncc3c(N/N=C/c4ccc(C(=O)NCCN(C)C)cc4)ncnc32)c1
Q = NS(=O)(=O)c1cccc(Nc2cc(-c3ccc(F)cc3)n[nH]2)c1
R = Cn1c(-c2nonc2N)nc2cnccc21
## Input Please order the records by their reported inhibition, lowest number first. Sort the labels as requested; that list is your answer.
## Output R, Q, P
(R: -9%, Q: 0%, P: 49%)

I = Cc1nc(-c2ccccc2)n2nc(NCCCN3CCOCC3)ncc12
II = COc1ccc2ncnc(Nc3ccc(OCc4ccccc4)cc3)c2c1
III = NCc1ccc(-c2nc(-c3ccc(Cl)c(O)c3)c(-c3ccncc3)[nH]2)cc1
IV = Fc1ccc(-c2nc3n(c2-c2ccncc2)CCS3)cc1
## Input Falling order of inhibition, please. Hello, could you send the labels back in the order asked? Thank you.
## Output IV, I, III, II
(IV: 73%, I: 39%, III: 0%, II: -4%)

A = c1cnn2ncc(-c3ccnc(NCCCN4CCOCC4)n3)c2c1
B = COc1ccc(-c2oc3ncnc(N)c3c2-c2ccc(NC(=O)Nc3cc(C(F)(F)F)ccc3F)cc2)cc1
## Input // returns A or B , whichever has the lower inhibition Identify your pick by its label.
## Output B

###

Target: Tyrosine-protein kinase Mer (Homo sapiens) (UniProt Q12866)
Settings: at 10 µM
Recorded metric: inhibition (%)

Below, 5 molecules whose answers are already recorded.
COc1cccc(-c2c[nH]c3c(N/N=C/c4ccncc4)ncnc23)c1 = 85
COC(=O)c1ccc2c(c1)C(=Cc1cc(Br)c(O)c(Br)c1)C(=O)N2 = 5
Clc1ccc(-c2nn3ncccc3c2-c2ccnc(Nc3ccccc3)n2)cc1 = -9
CCn1c(-c2nonc2N)nc2cncc(C(=O)NCCNC)c21 = 81
Nc1nccc(-c2c(-c3ccc(F)cc3)ncn2CCCN2CCOCC2)n1 = 4

1 = NC(=O)c1cc(-c2ccncc2)cc(-c2ccccc2)c1N
2 = NS(=O)(=O)c1ccc(N/N=C2\C(=O)Nc3ccc(-c4cnco4)cc32)cc1
3 = Nc1nc(-c2ccc3c(c2)C(=Cc2cc(Br)c(O)c(Br)c2)C(=O)N3)cs1
## Input Write the entries in order, lowest recorded inhibition first. Kindly provide the labels arranged according to the requested ordering.
## Output 3, 1, 2

P = CCN(CC)S(=O)(=O)c1ccc(OC)c(Nc2ncc(-c3ccccc3)o2)c1
Q = C[C@@H](Oc1cc(-n2cnc3ccc(OCC4CCN(C)CC4)cc32)sc1C(N)=O)c1ccccc1C(F)(F)F
## Input Between the two listed entries P and Q , which has its inhibition at the higher number? # reply format: chosen label
## Output P

###

Biological target: Serine/threonine-protein kinase TBK1 (Homo sapiens) (UniProt Q9UHD2)
Sequence (Q9UHD2 whole entry): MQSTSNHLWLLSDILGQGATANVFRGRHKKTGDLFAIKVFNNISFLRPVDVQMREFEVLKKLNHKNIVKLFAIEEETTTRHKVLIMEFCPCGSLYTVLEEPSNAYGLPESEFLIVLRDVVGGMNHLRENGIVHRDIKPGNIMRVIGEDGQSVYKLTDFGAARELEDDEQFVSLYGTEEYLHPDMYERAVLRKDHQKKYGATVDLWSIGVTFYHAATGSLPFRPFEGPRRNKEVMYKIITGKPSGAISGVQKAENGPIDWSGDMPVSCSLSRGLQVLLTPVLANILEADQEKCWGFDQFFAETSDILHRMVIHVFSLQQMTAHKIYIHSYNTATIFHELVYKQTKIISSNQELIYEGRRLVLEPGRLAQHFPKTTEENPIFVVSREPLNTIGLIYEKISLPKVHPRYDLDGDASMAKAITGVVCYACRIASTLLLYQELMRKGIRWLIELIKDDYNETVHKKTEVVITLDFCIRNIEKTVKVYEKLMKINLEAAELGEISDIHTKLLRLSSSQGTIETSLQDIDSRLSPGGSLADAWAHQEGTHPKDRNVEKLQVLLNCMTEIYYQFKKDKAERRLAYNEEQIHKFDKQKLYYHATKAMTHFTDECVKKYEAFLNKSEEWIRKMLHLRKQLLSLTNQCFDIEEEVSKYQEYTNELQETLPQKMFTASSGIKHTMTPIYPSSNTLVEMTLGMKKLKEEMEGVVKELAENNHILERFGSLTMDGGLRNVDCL
Conditions: at 1 µM
Recorded metric: inhibition (%)

# example entries with known answers
Cc1nnc(-c2ccc(C)c(-c3ccc(C(=O)Nc4cccc(C#N)c4)cc3)c2)o1 = -2
COc1ccc2c(-c3ccnc(Nc4cccc(OC(F)(F)F)c4)n3)cnn2n1 = 49
Oc1cccc(-c2nc(-c3ccccc3)[nH]c2-c2ccncc2)c1 = -1
COC(=O)c1ccc2c(c1)C(=Cc1cc(Br)c(O)c(Br)c1)C(=O)N2 = 36
COC(=O)Nc1nc2cc(Oc3ccc(NC(=O)Nc4ccccc4)cc3)ccc2[nH]1 = 8
O=C1Nc2ccc(I)cc2C1=Cc1cc(Br)c(O)c(Br)c1 = 3

P = Fc1ccc(-c2ncn(CCCN3CCOCC3)c2-c2ccncc2)cc1
Q = CCn1c(-c2nonc2N)nc2cnc(Oc3cccc(NC(=O)c4ccc(OCCN5CCOCC5)cc4)c3)cc21
## Input // which entry has the larger inhibition value, P or Q ? Lab log: write the label of the selected item as the result.
## Output Q
(Q: 12%, P: -1%)

###

Target: Inhibitor of nuclear factor kappa-B kinase subunit beta (Homo sapiens)
Details: at 1 µM
Recorded metric: inhibition (%)

Reference set, count: 2
COc1ccc(-c2nn3ncccc3c2-c2ccnc(Nc3ccc4c(c3)OCCO4)n2)cc1 = -4
Nc1nonc1-c1nc2cnccc2n1C1CCCCC1 = -7

A = COc1cccc(-n2nc(C)c3c(N/N=C(\C)c4ccncc4)ncnc32)c1
B = COc1ccc2cc(-c3c(-c4ccncc4)nc(-c4ccc(S(C)(=O)=O)cc4C)n3C)ccc2c1
C = NCc1ccc(-c2nc(-c3ccc(Cl)c(O)c3)c(-c3ccncc3)[nH]2)cc1
D = CCOc1ccc2c(-c3ccnc(Nc4cc(OC)cc(C(F)(F)F)c4)n3)cnn2n1
E = O=C(Nc1n[nH]c2nc(-c3ccco3)ccc12)C1CC1
## Input Please produce an ascending ranking of these compounds based on inhibition. List labels; respect the requested ordering.
## Output E, A, B, D, C
(E: -6%, A: -3%, B: -2%, D: -1%, C: 2%)

###

Molecular target: Tyrosine-protein kinase Mer (Homo sapiens) (UniProt Q12866)
Sequence (whole entry): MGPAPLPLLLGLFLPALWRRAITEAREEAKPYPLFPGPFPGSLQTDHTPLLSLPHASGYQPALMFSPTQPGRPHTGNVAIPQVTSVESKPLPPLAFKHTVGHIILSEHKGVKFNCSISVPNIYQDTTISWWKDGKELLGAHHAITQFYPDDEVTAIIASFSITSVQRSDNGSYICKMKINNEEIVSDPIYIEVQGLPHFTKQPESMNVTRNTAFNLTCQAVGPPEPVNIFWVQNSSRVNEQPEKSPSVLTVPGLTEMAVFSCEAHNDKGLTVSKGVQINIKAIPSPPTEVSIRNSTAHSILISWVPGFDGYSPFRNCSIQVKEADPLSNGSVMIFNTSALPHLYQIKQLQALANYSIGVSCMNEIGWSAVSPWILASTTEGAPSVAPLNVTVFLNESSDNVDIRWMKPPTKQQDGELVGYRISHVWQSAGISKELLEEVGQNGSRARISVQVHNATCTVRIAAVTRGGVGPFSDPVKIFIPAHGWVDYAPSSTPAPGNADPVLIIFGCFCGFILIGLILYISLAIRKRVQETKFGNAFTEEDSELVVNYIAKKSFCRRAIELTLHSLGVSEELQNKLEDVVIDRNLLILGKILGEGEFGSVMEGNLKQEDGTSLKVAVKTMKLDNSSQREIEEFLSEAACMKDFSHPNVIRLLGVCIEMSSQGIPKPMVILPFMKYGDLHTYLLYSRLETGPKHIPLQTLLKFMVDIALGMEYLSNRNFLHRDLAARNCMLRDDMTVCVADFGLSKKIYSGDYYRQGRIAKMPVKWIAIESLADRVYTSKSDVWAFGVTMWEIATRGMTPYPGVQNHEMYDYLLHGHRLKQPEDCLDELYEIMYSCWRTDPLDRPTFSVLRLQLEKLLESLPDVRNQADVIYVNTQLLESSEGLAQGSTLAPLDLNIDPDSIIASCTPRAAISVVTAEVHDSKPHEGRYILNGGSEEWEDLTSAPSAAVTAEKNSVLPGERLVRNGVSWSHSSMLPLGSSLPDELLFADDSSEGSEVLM
Conditions: at 10 µM
Recorded metric: inhibition (%)

CCN1CCC(C(=O)Nc2n[nH]c3nnc(-c4cccc(F)c4F)cc23)CC1 = -7
CC(C)=Cc1cccc2c1/C(=N/Nc1ccc(S(N)(=O)=O)cc1)C(=O)N2 = 68
Nc1ncc(-c2cccc(S(N)(=O)=O)c2)c2scc(-c3ccc(F)c(Cl)c3)c12 = 3
NS(=O)(=O)c1ccc(-c2cc3ccncc3cc2OCc2ccccc2)cc1 = -3
Cc1cc(-c2ccccn2)cc(C)c1/C=C/c1cncc(-c2nn[nH]n2)c1 = -7
CCn1c(-c2nonc2N)nc2c(C#CC(C)(C)O)ncc(OC[C@@H]3CCCN3)c21 = -4

1 = CN(c1ccc(NC(=O)Nc2c(Cl)cccc2Cl)cc1)c1ccnc(Nc2cccc(CS(C)(=O)=O)c2)n1
2 = FC(F)(F)c1ccc(-c2nn3ncccc3c2-c2ccnc(Nc3ccc4c(c3)OCCO4)n2)cc1
3 = CN(C)CCOc1ccc(-c2cc(-c3ccc4c(c3)CCC4=NO)c(-c3ccncc3)o2)cc1
4 = COc1ccc(Nc2ncc(-c3ccccc3)o2)cc1OC
## Input Order the entries by their reported inhibition, beginning at the minimum. Please express your ranking as an ordered list of the labels.
## Output 2, 1, 4, 3
(2: -6%, 1: -4%, 4: 0%, 3: 1%)
